Target: T1, human GPRC5D (human, UniProt Q9NZD1 1-345)
T1 construct: on transfected HEK293/RBL cells or endogenous on myeloma cells (H929, MM1R, OPM2, LP1, JIM3, patient plasma cells); also called G protein-coupled receptor class C group 5 member D; hGPRC5D
T1 sequence (Q9NZD1 whole entry): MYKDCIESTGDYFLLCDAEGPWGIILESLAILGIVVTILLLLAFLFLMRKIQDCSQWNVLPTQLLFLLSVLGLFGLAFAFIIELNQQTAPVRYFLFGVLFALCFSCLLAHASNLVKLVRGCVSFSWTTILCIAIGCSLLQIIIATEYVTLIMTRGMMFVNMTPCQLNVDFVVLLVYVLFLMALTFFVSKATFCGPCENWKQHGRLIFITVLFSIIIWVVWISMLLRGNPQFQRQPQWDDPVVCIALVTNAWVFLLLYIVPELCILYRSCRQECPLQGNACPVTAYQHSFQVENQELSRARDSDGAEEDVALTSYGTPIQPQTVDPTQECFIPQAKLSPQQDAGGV
Experiment: FACS, human GPRC5D cells
# Lookup of reported MFI keyed by entry

- BINDER: "GC5B481 (antibody, V domains shown, GC5B164 PTM variant; also called GC5H268) VH: EVQLVQSGAEVKKPGESLKISCKGSGYSFTSYYIGWVRQMPGKGLEWMGIIYPGKSDTRYSPSFQGQVTISADKSISTAYLQWSSLKASDTAMYYCARVYSFGGRHKALFDYWGQGTLVTVSS VL: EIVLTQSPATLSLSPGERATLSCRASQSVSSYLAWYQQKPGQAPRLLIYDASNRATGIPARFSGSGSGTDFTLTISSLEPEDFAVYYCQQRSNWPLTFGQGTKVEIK"
  MFI: "> 10000 mfi"
- BINDER: "GC5B501 (antibody, V domains shown, GC5B164 PTM variant; also called GC5H248) VH: EVQLVQSGAEVKKPGESLKISCKGSGYSFTSYWIGWVRQMPGKGLEWMGIIYPGASDTRYSPSFQGQVTISADKSISTAYLQWSSLKASDTAMYYCARVYSFGGRHKALFDYWGQGTLVTVSS VL: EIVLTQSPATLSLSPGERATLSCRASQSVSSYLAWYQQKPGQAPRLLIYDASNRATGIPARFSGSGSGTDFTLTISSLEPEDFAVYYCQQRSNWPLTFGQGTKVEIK"
  MFI: "> 10000 mfi"
- BINDER: "GC5B480 (antibody, V domains shown, GC5B164 PTM variant; also called GC5H269) VH: EVQLVQSGAEVKKPGESLKISCKGSGYSFTSYAIGWVRQMPGKGLEWMGIIYPGSSDTRYSPSFQGQVTISADKSISTAYLQWSSLKASDTAMYYCARVYSFGGRHKALFDYWGQGTLVTVSS VL: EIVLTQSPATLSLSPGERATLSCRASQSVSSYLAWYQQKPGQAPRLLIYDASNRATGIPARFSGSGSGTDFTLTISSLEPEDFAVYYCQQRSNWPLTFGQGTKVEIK"
  MFI: "1000 to 10000 mfi"
